Taken from paper PMC12390684.

target: IN-GCN2 interaction (6xHis-IN / GST-GCN2) (UniProt P04585+Q9P2K8); assay: biochemical; format: binding, HIV-1 IN; human GCN2; settings: screen, single dose 100 µM, single replicate; residual AlphaLISA signal normalized to DMSO control
Sequence (Q9P2K8 192-1024, other chains not shown): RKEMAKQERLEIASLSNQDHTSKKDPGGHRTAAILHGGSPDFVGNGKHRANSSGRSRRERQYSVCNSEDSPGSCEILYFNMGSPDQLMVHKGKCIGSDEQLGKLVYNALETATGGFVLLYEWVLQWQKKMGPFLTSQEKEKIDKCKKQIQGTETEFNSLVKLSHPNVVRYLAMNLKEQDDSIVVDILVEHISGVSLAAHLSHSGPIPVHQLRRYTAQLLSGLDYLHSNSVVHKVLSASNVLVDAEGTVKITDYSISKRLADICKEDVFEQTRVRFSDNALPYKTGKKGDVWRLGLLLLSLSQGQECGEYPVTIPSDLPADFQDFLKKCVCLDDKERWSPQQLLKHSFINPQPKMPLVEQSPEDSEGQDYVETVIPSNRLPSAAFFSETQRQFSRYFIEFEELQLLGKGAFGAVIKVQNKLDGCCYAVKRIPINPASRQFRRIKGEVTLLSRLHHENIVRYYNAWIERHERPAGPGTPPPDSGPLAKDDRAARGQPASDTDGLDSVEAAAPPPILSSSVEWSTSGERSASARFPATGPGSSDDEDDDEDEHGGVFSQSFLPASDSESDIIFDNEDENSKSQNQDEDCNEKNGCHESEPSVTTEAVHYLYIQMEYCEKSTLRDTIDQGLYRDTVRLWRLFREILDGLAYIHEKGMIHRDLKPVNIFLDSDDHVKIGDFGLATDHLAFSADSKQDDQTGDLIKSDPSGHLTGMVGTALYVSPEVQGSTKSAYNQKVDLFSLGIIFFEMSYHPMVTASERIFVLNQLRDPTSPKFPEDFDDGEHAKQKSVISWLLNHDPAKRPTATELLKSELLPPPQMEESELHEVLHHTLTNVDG
RESULT_TYPE: IN-GCN2 interaction (%)
Give your result in % as a bare value.

Consider the worked cases shown below.
MOLECULE | IN-GCN2 interaction (%)
O=C([O-])c1nc(=O)[nH]c(=O)[nH]1.[K+] [NSC28841] | 85.56
Nc1nc2c(c(=O)[nH]1)N(C=O)C(CNc1ccc(C(=O)N[C@@H](CCC(=O)O)C(=O)O)cc1)CN2 (stereo partly drawn) [NSC3590] | 94.67

Turning now to a further record.
Field IN-GCN2 interaction (%) (entry O=c1cccc2n1C[C@H]1C[C@@H]2CN2CCCC[C@@H]12 [NSC21725] ) reads 90.50
